# protocolDetails: physchem
# conditionLabel: octanol/phosphate buffer
# Description: Octanol-phosphate buffer partition coefficient, log P of the compound after 24 hrs by UV spectroscopic analysis
parameterMeasured: logP at 24 h

Study these solved cases before continuing.
>>> print(df.to_string())
                            structuresmiles  parametermeasured  measuredresult
0   S=C(N/N=C/c1ccc(Oc2ccccc2)cc1)NC1CCCCC1       logP at 24 h             5.7
1  S=C(N/N=C/c1ccc(Oc2ccc3ccccc3c2)cc1)Nc1ccccc1       logP at 24 h            6.07

# input for lookup
What does the data say about its logP at 24 h? Entry: `Cc1ccc(NC(=S)N/N=C/c2ccc(Oc3ccc4ccccc4c3)cc2)cc1`
6.56
